System: T98G
Test: Cytotoxicity against human T98G cells after 72 hrs by MTT assay
Type: functional
Measured GI50 accompanies every entry in the list below.
readout_name: GI50

COc1ccc(C(=O)C2=NCCc3cc(OC)c(OC)cc32)cc1OC :: > 100 µM
COc1ccc(/C=C/C(=O)Nc2ccc(OC)c(OC)c2)cc1OC :: > 50 µM
COc1ccc(NS(=O)(=O)c2ccc(OC)c(OC)c2)cc1OC :: > 100 µM
COc1ccc(CNC(=O)c2ccc(OC)c(OC)c2)cc1OC :: > 100 µM
COc1ccc(CNC(=O)NCc2ccc(OC)c(OC)c2)cc1OC :: > 100 µM
COc1ccc(CCNC(=O)c2ccc(OC)c(OC)c2)cc1OC :: > 100 µM
COc1ccc(/C=C/C=C/c2ccc(OC)c(OC)c2)cc1OC :: > 100 µM
COc1ccc(/C=C/C(=O)NCc2ccc(OC)c(OC)c2)cc1OC :: 70.3 µM
COc1ccc(C[C@@H](C)[C@@H](C)Cc2ccc(OC)c(OC)c2)cc1OC :: > 50 µM
COc1ccc(CNS(=O)(=O)c2ccc(OC)c(OC)c2)cc1OC :: > 100 µM
COc1ccc(CCNS(=O)(=O)c2ccc(OC)c(OC)c2)cc1OC :: > 100 µM
COc1ccc(NC(=O)c2ccc(OC)c(OC)c2)cc1OC :: > 100 µM
COc1ccc(CC(=O)Nc2ccc(OC)c(OC)c2)cc1OC :: > 100 µM
COc1ccc(CC(=O)N2CCc3cc(OC)c(OC)cc3C2)cc1OC :: > 100 µM
COc1ccc(/C=C2/CCc3cc(OC)c(OC)cc32)cc1OC (mixture of isomers) :: > 25 µM
COc1ccc(C(=O)N2CCc3cc(OC)c(OC)cc3C2)cc1OC :: 10.1 µM
COc1ccc(S(=O)(=O)N2CCc3cc(OC)c(OC)cc3C2)cc1OC :: > 50 µM
COc1ccc(C2NCCc3cc(OC)c(OC)cc32)cc1OC (stereo unspecified) :: > 100 µM
COc1ccc(CN2CCc3cc(OC)c(OC)cc3C2)cc1OC :: > 100 µM
COc1ccc(CNC(=O)Nc2ccc(OC)c(OC)c2)cc1OC :: > 100 µM
COc1ccc(CCNC(=O)Cc2ccc(OC)c(OC)c2)cc1OC :: > 100 µM
